- TEST SYSTEM: NSP10/14 complex (Severe acute respiratory syndrome coronavirus 2, UniProt P0DTD1)
- Construct: full-length NSP14 and NSP10 (139 aa), mature chains of replicase polyprotein 1ab; N-terminal His-tags (pDEST527), E. coli Rosetta2; assembled in vitro, copurified on Mono S, near stoichiometric; with Non-structural protein 10
- METHOD NOTES: biochemical
REPORTED ENDPOINT: EC50 (µM)
Just the number please, in µM, no unit attached.

Incoming: Request - read-out EC50 | tested on NSP10/14 complex (Severe acute respiratory syndrome coronavirus 2, UniProt P0DTD1) | molecule "Nc1ncnc2c1ncn2[C@@H]1O[C@H](CSCC[C@H](N)C(=O)O)[C@@H](O)[C@H]1O"
Outgoing: 25

Numbers sourced from paper PMC8685350.
